# System: Mus musculus
# test: Antidepressant activity in Mus musculus Swiss (mouse) at 75 umol/kg, ip
# Assay type: functional, organism-based
Calls of active or inactive are those of the source. No cut-off for these calls is given here.
API: response.call in active, inactive

compound | label
CN(CCC(Oc1ccc(C(F)(F)F)cc1)c1ccccc1)CC(O)COc1ccc(Br)cc1 (stereo not given) | inactive
CN(CCC(Oc1ccc(C(F)(F)F)cc1)c1ccccc1)CC(O)COc1ccc(C(F)(F)F)cc1 (stereo not given) | inactive
COc1ccc(OCC(O)CN(C)CCC(Oc2ccc(C(F)(F)F)cc2)c2ccccc2)cc1 (stereo not given) | inactive
CN(CCC(Oc1ccc(C(F)(F)F)cc1)c1ccccc1)CC(O)COc1ccc2ccccc2c1 (stereo not given) | inactive
CN(CCC(Oc1ccc(C(F)(F)F)cc1)c1ccccc1)CC(O)COc1ccccc1 (stereo not given) | inactive
CN(CCC(Oc1ccc(C(F)(F)F)cc1)c1ccccc1)CC(O)COc1cccc(C(F)(F)F)c1 (stereo not given) | inactive
CN(CCC(Oc1ccc(C(F)(F)F)cc1)c1ccccc1)CC(O)COc1ccc(Cl)cc1 (stereo not given) | inactive
CN(CCC(Oc1ccc(C(F)(F)F)cc1)c1ccccc1)CC(O)COc1ccc(C#N)cc1 (stereo not given) | active

Assay outcome for CC(=O)c1ccc(OCC(O)CN(C)CCC(Oc2ccc(C(F)(F)F)cc2)c2ccccc2)cc1 (stereo not given) : what was it?
inactive

Lab log entry: COc1ccccc1OCC(O)CN(C)CCC(Oc1ccc(C(F)(F)F)cc1)c1ccccc1 (stereo not given) — outcome as called in the assay?
inactive

Dear colleague, could you share the recorded outcome for Cc1ccccc1OCC(O)CN(C)CCC(Oc1ccc(C(F)(F)F)cc1)c1ccccc1 (stereo not given) when you have a moment?
inactive

# fetch the recorded call for CC(=O)Nc1ccc(OCC(O)CN(C)CCC(Oc2ccc(C(F)(F)F)cc2)c2ccccc2)cc1 (stereo not given) here
inactive

Test call for this compound, please: CCC(=O)c1ccc(OCC(O)CN(C)CCC(Oc2ccc(C(F)(F)F)cc2)c2ccccc2)cc1 (stereo not given)
inactive

Could you kindly confirm the outcome this assay logged for CN(CCC(Oc1ccc(C(F)(F)F)cc1)c1ccccc1)CC(O)COc1ccc(C=O)cc1 (stereo not given) ?
inactive

Hello, I am checking results. What call was entered for CCNc1ccc(OCC(O)CN(C)CCC(Oc2ccc(C(F)(F)F)cc2)c2ccccc2)cc1 (stereo not given) ?
inactive

----------
Attribute: Activity
# Tested on: Mus musculus
# test: Anorexigenic activity in Mus musculus Swiss (mouse) at 75 umol/kg, ip measured for 15 min relative to control
# Format: functional
Give the value in % but do not write % after it.

molecule | target entity | endpoint unit | Activity
CNCCC(Oc1ccc(C(F)(F)F)cc1)c1ccccc1 (stereo not given) | Mus musculus | % | 72
CCC(=O)c1ccc(OCC(O)CN(C)CCC(Oc2ccc(C(F)(F)F)cc2)c2ccccc2)cc1 (stereo not given) | Mus musculus | % | 36
CN(CCC(Oc1ccc(C(F)(F)F)cc1)c1ccccc1)CC(O)COc1ccc(C#N)cc1 (stereo not given) | Mus musculus | % | 72
CN(CCC(Oc1ccc(C(F)(F)F)cc1)c1ccccc1)CC(O)COc1ccc(C=O)cc1 (stereo not given) | Mus musculus | % | 40

Proceeding to the next molecule to report its Activity.
Query (molecule): CN(CCC(Oc1ccc(C(F)(F)F)cc1)c1ccccc1)CC(O)COc1ccc(C(F)(F)F)cc1 (stereo not given) ; field requested: Activity
32
